Protocol notes: ATG_EGR_CIS: Attagene CIS-FACTORIAL HepG2 Assay for human Early Growth Response 1 (EGR1) (AID 2282938)
Run parameters: HepG2 Attagene CIS-FACTORIAL EGR reporter mRNA; actives raise or lower the signal
Activity calls are given as the source filed them. The calls were made as follows: active = hit-call score of the fitted dose curve at least 0.9, where 1 is the maximum; inactive = score below 0.9.
Please answer using one outcome listed in active, inactive

Hello, I am checking results. What call was entered for CC(C)=CCCC(C)O (centres undefined) ?
inactive

Please state the recorded outcome for this compound: OCC(O)CC(F)(F)C(F)(F)C(F)(F)C(F)(F)F (centres undefined)
inactive

Test call, this compound: CCCCC(CC)COC(=O)c1ccc(N(C)C)cc1 (centres undefined)
inactive

Could you kindly confirm the outcome this assay logged for `CCCC(=O)OCC(COC(=O)CCC)OC(=O)CCC` ?
inactive

Look up the recorded call for `CCCCCCCCCCCCCCCCC` in this test.
inactive

Query: recorded result category for `O=C1OC(=O)c2ccc3c4c(ccc1c24)C(=O)OC3=O` in this test
inactive

Could you please tell me the result logged for `CNS(=O)(=O)C(F)(F)C(F)(F)C(F)(F)C(F)(F)C(F)(F)C(F)(F)C(F)(F)C(F)(F)F` in this assay?
inactive

For OCC(O)CC(F)(F)C(F)(F)C(F)(F)C(F)(F)C(F)(F)C(F)(F)C(F)(F)C(F)(F)F (centres undefined) , which call appears in the assay record?
inactive

Tell me the recorded outcome of this test for `CN1CN(C)CN(C)C1` .
inactive

Could you kindly confirm the outcome this assay logged for `CC(=O)C=O` ?
inactive

Outcome? CCC(C)CO (centres undefined)
inactive

What is the recorded call for this compound in the test? `Brc1ccccn1`
inactive

What was the test verdict on `COCCC(=O)OC` ?
inactive

Test call, this compound: `CCN=c1cc2oc3cc(NCC)c(C)cc3c(-c3ccccc3C(=O)OCC)c-2cc1C`
active

###

Read-out: Pselectin, SELP (gene 6403)
Protocol notes: BSK_4H_Pselectin: BioMAP Diversity Plus: 4H Assay for Pselectin Biomarker Activity (AID 2283026)
Run parameters: primary human endothelial cells (HUVEC); actives raise or lower the signal
Method: BSK_4H is a cell-based, multiplexed-readout assay that uses umbilical vein endothelium, a human vascular primary cell, with measurements taken at 24 hours after chemical dosing in a 96-well plate.BSK_4H_Pselectin is an assay component measured in the BSK_4H assay. It measures P-Selectin antibody related to regulation of gene expression using ELISA technology.Data from the assay component BSK_4H_Pselectin was analyzed into 1 assay endpoint. […]
Activity calls are given as the source filed them. How the source made its calls: active means hit-call score of the fitted dose curve at least 0.9, where 1 is the maximum; inactive means score below 0.9.
Recorded metric: outcome

// known answers, use as guide
CO[Si](C)(CCC(F)(F)C(F)(F)C(F)(F)C(F)(F)C(F)(F)C(F)(F)F)OC    inactive
CC(C)(C)c1cc(CCC(=O)NCCCCCCNC(=O)CCc2cc(C(C)(C)C)c(O)c(C(C)(C)C)c2)cc(C(C)(C)C)c1O    inactive
O=S(=O)(OCC(F)(F)F)C(F)(F)C(F)(F)C(F)(F)C(F)(F)F    inactive
Cc1cnccn1    inactive

State, in one line, measured outcome of `CN(C(=O)C(F)(F)C(F)(F)C(F)(F)F)[Si](C)(C)C`
inactive

###

Read-out: Matrix Metallopeptidase 1 (MMP1), MMP1 (gene 4312)
Protocol notes: BSK_BE3C_MMP1: BioMAP Diversity Plus: BE3C Assay for Matrix Metallopeptidase 1 (MMP1) Biomarker Activity (AID 2283024)
Run parameters: primary human bronchial epithelial cells; actives raise or lower the signal
Active and inactive are the calls of the source. Rule for the calls: active = hit-call score of the fitted dose curve at least 0.9, where 1 is the maximum; inactive = score below 0.9.
Hi! Could you answer with just one of these? active, inactive

Hey, what did the test say about `OCC(F)(F)C(F)(F)C(F)(F)CO` ?
inactive

Please indicate how the test categorized `CCN(CC)c1ccc(N=Nc2ccccc2)cc1` .
inactive

For `C=CC(=O)OCC(F)(F)C(F)(F)C(F)(F)C(F)(F)C(F)(F)C(F)(F)C(F)(F)C(F)F` , which call appears in the assay record?
inactive

State the result this test recorded for `O=C=Nc1cccc2c(N=C=O)cccc12` .
inactive

Please share the test call associated with `CCN(CC)c1ccc(C=O)cc1` .
inactive

Any idea what this test logged for `CNS(=O)(=O)C(F)(F)C(F)(F)C(F)(F)C(F)(F)C(F)(F)C(F)(F)C(F)(F)C(F)(F)F` ?
inactive

// outcome(item) with item = `Cc1cc(O)c(C(C)(C)C)cc1C(C)(C)C`
active

Field: outcome | Entry: `NC(=O)C(F)(F)C(F)(F)C(F)(F)C(F)(F)C(N)=O`
inactive

I'd appreciate the recorded outcome for OCC(O)CC(F)(F)C(F)(F)C(F)(F)C(F)(F)F (stereo not given) from this test.
inactive

Hi team, can someone confirm the assay call for `O=S(=O)(OCC(F)(F)F)C(F)(F)C(F)(F)C(F)(F)C(F)(F)F` ?
inactive

###

Read-out: Interferon-gamma inducible Protein 10 (IP10), CXCL10 (gene 3627)
Protocol notes: BSK_KF3CT_IP10: BioMAP Diversity Plus: KF3CT Assay for Interferon-gamma inducible Protein 10 (IP10) Biomarker Activity (AID 2283068)
Run parameters: primary human keratinocytes with fibroblasts; actives raise or lower the signal
Active and inactive are the calls of the source. How the source made its calls: active means hit-call score of the fitted dose curve at least 0.9, where 1 is the maximum; inactive means score below 0.9.
A correct response names exactly one class from active, inactive

Entry FC(F)(F)C(F)(F)C(F)(F)CC1CO1 (configuration not stated) : call = ?
inactive

Just curious, what result did CC1=CC2C3C=CC(C3)C2C1C (configuration not stated) get here?
inactive

Lab log entry: `Cc1ccc(O)c(-n2nc3ccccc3n2)c1` — outcome as called in the assay?
inactive

Could you check what this test reported for `O=C(O)C(F)(F)C(F)(F)C(F)(F)C(=O)O` ?
inactive

Entry `CNS(=O)(=O)C(F)(F)C(F)(F)C(F)(F)C(F)(F)C(F)(F)C(F)(F)C(F)(F)C(F)(F)F` : call = ?
inactive

Hi, do you know how `FC(F)(F)C(F)(F)C(F)(F)C(F)(F)C(F)(F)C(F)(F)CC[Si](Cl)(Cl)Cl` came out in this test?
inactive

Tell me the assay call for `O=C1c2c(O)ccc(Nc3ccc(CCO)cc3)c2C(=O)c2c([N+](=O)[O-])ccc(O)c21` please.
active

Answer briefly: the call reported for `OCC(F)(F)C(F)(F)C(F)(F)C(F)(F)C(F)(F)C(F)(F)CO` in this assay.
inactive

What was the test verdict on `CCOC(C=C(C)CCC=C(C)C)OCC` ?
active

Record lookup: outcome of this test for `Cc1ccc(S(=O)(=O)C(I)I)cc1` ?
active

Fill in: this test's call for OCC(O)CC(F)(F)C(F)(F)C(F)(F)C(F)(F)C(F)(F)C(F)(F)C(F)(F)C(F)(F)F (configuration not stated) is ___
inactive

Per the records of this test, what outcome belongs to `CCN(CC)c1ccc(N=Nc2ccccc2)cc1` ?
inactive

###

Protocol notes: CEETOX_H295R_11DCORT: CeeTox H295R High-throughput Steroidogenesis Assay for 11-Deoxycortisol (11DCORT) (AID 2283432)
Run parameters: actives raise or lower the signal
The source made the active and inactive calls. How the source made its calls: active means hit-call score of the fitted dose curve at least 0.9, where 1 is the maximum; inactive means score below 0.9.
Lab note: assign the record to one of true = active, false = inactive

What is the recorded call for this molecule in the test? `Cc1cc(O)c(C(C)(C)C)cc1C(C)(C)C`
false

# outcome recorded in this test, key = `CC1CCCCC1`
false

Hello, I am checking results. What call was entered for `C[C@]12CC[C@H]3C(=CCc4cc(O)ccc43)[C@@H]1CCC2=O` ?
true

Please let me know the test result on file for `Nc1cccnc1N` .
false

Lab log entry: `CCn1c2ccccc2c2ccccc21` — outcome as called in the assay?
true

Test call for this molecule, please: CCCCC(CC)COC(=O)c1ccc(N(C)C)cc1 (stereo unspecified)
false

// return assay outcome for `CCOCOCC`
false

What classification did `CCCCCCCCCCCCC[N+](C)(C)Cc1ccccc1` end up with in this test?
true

Which outcome was assigned to `CCN(CC)c1ccc(N=Nc2ccccc2)cc1` in this test?
true

What classification did `CSc1ccc(O)cc1C` end up with in this test?
false

For this molecule, state the assay outcome: `O=C1C=CC(=O)N1c1ccccc1`
false

###

Read-out: Monocyte Chemoattractant Protein-1 (MCP1), CCL2 (gene 6347)
Protocol notes: BSK_SAg_MCP1: BioMAP Diversity Plus: SAg Assay for Monocyte Chemoattractant Protein-1 (MCP1) Biomarker Activity (AID 2283090)
Run parameters: primary human HUVEC with PBMC; actives raise or lower the signal
The source made the active and inactive calls. Rule for the calls: active = hit-call score of the fitted dose curve at least 0.9, where 1 is the maximum; inactive = score below 0.9.
Choose the fitting class; nothing outside active, inactive is accepted.

Record request — test call for `O=C=NCc1cccc(CN=C=O)c1`
inactive

Check the results log: what was the call for `OCCCCC(F)(F)C(F)(F)C(F)(F)C(F)(F)F` ?
inactive

Name the outcome recorded for `CCN(CC)c1ccc(C=O)cc1` in the assay.
inactive

# lookup: test call for `O=C(O)C(F)(F)C(F)(F)C(F)(F)C(F)(F)C(F)(F)C(F)(F)C(F)F`
inactive

Please state the recorded outcome for this compound: `O=C(Cl)C(F)(F)C(F)(F)C(F)(F)C(F)(F)C(F)(F)C(F)(F)C(F)(F)F`
inactive

Each compound tested received a call. Report the one for `O=C(O)C(F)(F)C(F)(F)C(F)(F)C(=O)O` .
inactive

Recorded test call requested for `NC(O)(C(F)(F)F)C(F)(F)F`
inactive

What is the recorded call for this compound in the test? CC1=CC2C3C=CC(C3)C2C1C (stereo not given)
inactive

Called result for `O=C(O)C(F)(F)C(F)(F)C(F)(F)OC(F)(C(F)(F)F)C(F)(F)F`
inactive

Answer briefly: the call reported for `C[C@]12CC[C@H]3C(=CCc4cc(O)ccc43)[C@@H]1CCC2=O` in this assay.
inactive

Per the assay record, what outcome was assigned to COC(F)(C(F)F)C(F)(F)F (stereo not given) ?
inactive

Per the records of this test, what outcome belongs to `O=C1C=CC(=O)N1c1ccc(Cc2ccc(N3C(=O)C=CC3=O)cc2)cc1` ?
active

Entry `O=C(O)C(F)(F)C(F)(F)C(F)(F)OC(F)(F)F` : call = ?
inactive

Could you kindly confirm the outcome this assay logged for `O=C(c1ccccc1)c1ccc(O)cc1O` ?
inactive

Lab log entry: `OCC(F)(F)C(F)(F)C(F)(F)C(F)(F)C(F)(F)C(F)(F)CO` — outcome as called in the assay?
inactive

Every entry's value here was drawn from PubChem BioAssay (EPA / NIEHS).
